- test: reduction of polyQ htt aggregates in cells – imaging, exon1htt(103Q)mCFP cells, high-content imaging, primary screen (AID 483);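 note: compound exposure lasted 3 days before fixation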
- measurementConditions: exon1htt(103Q)mCFP cell line, aggregate imaging, at 2 µM
Activity calls are given as the source filed them.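 Rule for the calls: active = visual image review flags a hit and inhibition of aggregation exceeds 20%; inconclusive = visual hit but inhibition at or below 20%; inactive = no hit on visual image review.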
// allowed return values: t = active, f = inactive

[[record]]
compound = "O=C(CSc1nnc(-c2ccco2)n1-c1ccccc1)N1CCN(C(=O)c2ccco2)CC1"
class = "t"

[[record]]
compound = "COc1ccc(-c2noc(-c3ccccc3C(=O)Nc3cccnc3)n2)cc1OC"
class = "f"

[[record]]
compound = "O=C1C(C=NCCCn2ccnc2)=C(O)c2ccccc21"
class = "f"

[[record]]
compound = "O=C(Nn1cnnc1)C1Cc2ccccc2CN1S(=O)(=O)c1ccc(F)cc1 (centres undefined)"
class = "f"

[[record]]
compound = "Cc1nnc(SCC(=O)N2c3ccccc3CC2C)s1 (centres undefined)"
class = "f"

[[record]]
compound = "COc1cccc(C2CC(c3c(Cl)cccc3Cl)n3nc(N)nc3N2)c1 (centres undefined)"
class = "f"

[[record]]
compound = "CC(CCC(=O)Nc1nncs1)C(=O)O (centres undefined)"
class = "f"

[[record]]
compound = "CC(C)[C@H](NC(=O)OC(C)(C)C)c1nnc(SCc2cccc(F)c2)o1"
class = "f"


q: Call for entry Cc1cc(NS(=O)(=O)c2ccc(Nc3nc(-c4sc(N)nc4C)cs3)cc2)no1 :
a: f

q: Call for entry c1ccc2c(c1)nc(NCCN1CCOCC1)c1nncn12 :
a: f

q: Call for entry Cc1ccccc1Cn1ccc(NC(=O)c2onc(C)c2Cl)n1 :
a: f

q: Call for entry Cc1c(NC(=O)Cn2nc(C(=O)O)c3ccccc3c2=O)c(=O)n(-c2ccccc2)n1C :
a: f
